Data provenance: patent US10239861B2

# target_or_system: PCAF bromodomain (His/Flag epitope tagged PCAF719-832) (Homo sapiens (Human), UniProt Q92831)
# Sequence (Q92831 719-832): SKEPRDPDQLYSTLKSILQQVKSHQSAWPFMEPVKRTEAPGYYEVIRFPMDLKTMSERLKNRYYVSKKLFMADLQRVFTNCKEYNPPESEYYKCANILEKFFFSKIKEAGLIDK
# method_notes: PCAF AlphaLisa binding assay
quantity_measured: pIC50
Keep in mind that pIC50 stands for -log10 of concentration in molar terms.

Request: Any idea what its pIC50 is? The compound is Cn1ncc(NC2CN3CCC2CC3)c(Cl)c1=O (racemic)
Result: 6.01

====

# target_or_system: PCAF bromodomain (His/Flag epitope tagged PCAF719-832) (Homo sapiens (Human), UniProt Q92831)
# method_notes: PCAF AlphaLisa binding assay
# condition_set: AlphaLisa; PCAF bromodomain 225 nM, biotinylated small molecule ligand 6 nM; read-out: PCAF IC50
# Description: IC50 Measurements for Inhibitors Using PCAF AlphaLisa Binding Assay PCAF bromodomain binding and inhibition of the compounds disclosed herein was assessed by monitoring the engagement of biotinylated small molecule ligand (known to bind to the PCAF bromodomain) with the target using the AlphaLisa technology (Perkin-Elmer).
Mark each entry Condition met if its IC50 sits below 400 nM, and Condition not met for all others.

compound: C[C@@H](c1ccccc1)N1CCCC(Nc2cnn(C)c(=O)c2Cl)C1 (stereo partly shown) [Example 36]
category: Condition not met
//
compound: CN1CCCCC(Nc2cnn(CC3CC3)c(=O)c2Cl)C1 (stereo not shown) [Example 16]
category: Condition not met
//
compound: C[C@H](c1ccccc1)N1CCCC(Nc2cnn(C)c(=O)c2Cl)C1 (stereo partly shown) [Example 35]
category: Condition not met
//
compound: CN1[C@@H]2CC[C@H]1C[C@@H](Nc1cnn(C)c(=O)c1Cl)C2 [Example 5]
category: Condition not met
//
compound: Cn1ncc(NC2CCCOC2)c(Cl)c1=O (racemic) [Example 11]
category: Condition not met

Request: Bench note: check whether Cn1ncc(NC2CCCN(Cc3ccc(-n4ccnc4)cc3)C2)c(Cl)c1=O (stereo not shown) [Example 45] shows IC50 below 400 nM
Result: Condition met

====

# target_or_system: PCAF bromodomain (His/Flag epitope tagged PCAF719-832) (Homo sapiens (Human), UniProt Q92831)
# method_notes: PCAF AlphaLisa binding assay
# condition_set: AlphaLisa; PCAF bromodomain 225 nM, biotinylated small molecule ligand 6 nM; read-out: PCAF IC50
quantity_measured: pIC50
Keep in mind that pIC50 stands for -log10 of concentration in molar terms.

compound: C[C@@H]1CC[C@@H](Nc2cnn(C)c(=O)c2Cl)CN1C (stereo in doubt) [Example 28]
quantity_measured: pIC50
numeric_value: 6.76

compound: CN1CCC(Nc2cnn(C)c(=O)c2Cl)CC1
quantity_measured: pIC50
numeric_value: 5.91

compound: Cn1ncc(NC2CCCN(Cc3ccccc3N3CCOCC3)C2)c(Cl)c1=O (stereo not shown)
quantity_measured: pIC50
numeric_value: 6.04

compound: Cn1ncc(NC2CCCN(Cc3ccccn3)C2)c(Cl)c1=O (stereo not shown)
quantity_measured: pIC50
numeric_value: 5.70

compound: CN1[C@@H]2CC[C@H]1C[C@H](Nc1cnn(C)c(=O)c1Cl)C2
quantity_measured: pIC50
numeric_value: 6.31

Request: Any idea what its pIC50 is? The compound is CN1CCCCC(Nc2cnn(C)c(=O)c2Cl)C1 (racemic)
Result: 7.21

Request: Any idea what its pIC50 is? The compound is Cc1cncc(CN2CCCC(Nc3cnn(C)c(=O)c3Cl)C2)c1 (stereo not shown)
Result: 6.36

Request: Any idea what its pIC50 is? The compound is CC(C)N1CCCC(Nc2cnn(C)c(=O)c2Cl)C1 (stereo not shown)
Result: 6.83

Request: Any idea what its pIC50 is? The compound is Cn1ncc(NC2CCCN(Cc3ccc(F)cc3)C2)c(Cl)c1=O (stereo not shown)
Result: 6.86

Request: Any idea what its pIC50 is? The compound is CC1CCC(Nc2cnn(C)c(=O)c2Cl)CN1C (stereo not shown)
Result: 7.22

====

# target_or_system: PCAF bromodomain (His/Flag epitope tagged PCAF719-832) (Homo sapiens (Human))
# method_notes: PCAF AlphaLisa binding assay
# condition_set: AlphaLisa; PCAF bromodomain 225 nM, biotinylated small molecule ligand 6 nM; read-out: PCAF IC50
quantity_measured: pIC50
Keep in mind that pIC50 stands for -log10 of concentration in molar terms.

Some solved entries appear below for comparison.
molecule: CN1CC(Nc2cnn(C)c(=O)c2Cl)CC(c2ccccc2)C1 (racemic)
numeric_value: 6.78
//
molecule: Cn1ncc(NC2CCCN(Cc3ncc[nH]3)C2)c(Cl)c1=O (centres unmarked)
numeric_value: 6.42
//
molecule: CN1CCCCC(Nc2cnn(C)c(=O)c2Br)C1 (centres unmarked)
numeric_value: 7.29
//
molecule: Cn1ccnc1CN1CCCC(Nc2cnn(C)c(=O)c2Cl)C1 (centres unmarked)
numeric_value: 5.85
//
molecule: Cn1ncc(NC2CCCN(Cc3nc(-c4ccc(Cl)cc4)no3)C2)c(Cl)c1=O (centres unmarked)
numeric_value: 6.33
//
molecule: Cc1nc(CN2CCCC(Nc3cnn(C)c(=O)c3Cl)C2)[nH]c1C (centres unmarked)
numeric_value: 5.84
//
molecule: Cn1ncc(NC2CCCN(Cc3cncnc3)C2)c(Cl)c1=O (centres unmarked)
numeric_value: 6.20
//
molecule: CN(C)c1ccc(CN2CCCC(Nc3cnn(C)c(=O)c3Cl)C2)cc1 (centres unmarked)
numeric_value: 6.51
//
molecule: C[C@@H]1CC[C@H](Nc2cnn(C)c(=O)c2Cl)CN1C (stereo in doubt)
numeric_value: 6.84
//
molecule: Cn1ncc(NC2CCCN(Cc3cc(Cl)cc(Cl)c3)C2)c(Cl)c1=O (centres unmarked)
numeric_value: 6.56

Request: Any idea what its pIC50 is? The molecule is Cn1ncc(NC2CCCN(C3COC3)C2)c(Cl)c1=O (centres unmarked)
Result: 5.91

Request: Any idea what its pIC50 is? The molecule is Cn1cc(CN2CCCC(Nc3cnn(C)c(=O)c3Cl)C2)cn1 (centres unmarked)
Result: 6.43

Request: Any idea what its pIC50 is? The molecule is "Cn1ncc(N[C@H]2CCCCN(Cc3ccccc3)C2)c(Cl)c1=O"
Result: 5.42

Request: Any idea what its pIC50 is? The molecule is CC(C)n1ncc(NC2CCCCN(C)C2)c(Cl)c1=O (centres unmarked)
Result: 5.96

Request: Any idea what its pIC50 is? The molecule is "CN1CCCC[C@@H](Nc2cnn(C)c(=O)c2Cl)C1"
Result: 6.77

Request: Any idea what its pIC50 is? The molecule is COCCN1CCCC(Nc2cnn(C)c(=O)c2Cl)C1 (centres unmarked)
Result: 6.50

Request: Any idea what its pIC50 is? The molecule is Cn1ncc(NC2CCCN(Cc3cccc(OC(F)F)c3)C2)c(Cl)c1=O (centres unmarked)
Result: 7.02

Request: Any idea what its pIC50 is? The molecule is CN1CCCCCC(Nc2cnn(C)c(=O)c2Cl)C1 (centres unmarked)
Result: 6.81

Request: Any idea what its pIC50 is? The molecule is "Cn1ncc(N[C@@H]2CCCCN(Cc3ccccc3)C2)c(Cl)c1=O"
Result: 6.01

Request: Any idea what its pIC50 is? The molecule is C[C@@H]1CC[C@@H](Nc2cnn(C)c(=O)c2Cl)CN1C (stereo in doubt) [Example 26]
Result: 7.46

====

# target_or_system: PCAF bromodomain (His/Flag epitope tagged PCAF719-832) (Homo sapiens (Human), UniProt Q92831)
# method_notes: PCAF AlphaLisa binding assay
# condition_set: AlphaLisa; PCAF bromodomain 225 nM, biotinylated small molecule ligand 6 nM; read-out: PCAF IC50
Mark each entry condition met if its IC50 sits below 200 nM, and condition not met for all others.

compound: CCn1ncc(NC2CCCCN(C)C2)c(Cl)c1=O (stereo not shown)
category: condition not met

Request: Bench note: check whether Cn1ncc(NC2CCCN(c3ccccn3)C2)c(Cl)c1=O (stereo not shown) shows IC50 below 200 nM
Result: condition not met

Request: Bench note: check whether CN1CCCC(Nc2cnn(C)c(=O)c2Cl)CC1 (racemic) shows IC50 below 200 nM
Result: condition met

====

Property: log10 IC50; scope: individual compounds
# target_or_system: PCAF bromodomain (His/Flag epitope tagged PCAF719-832) (Homo sapiens (Human), UniProt Q92831)
# method_notes: PCAF AlphaLisa binding assay
# condition_set: AlphaLisa; PCAF bromodomain 225 nM, biotinylated small molecule ligand 6 nM; read-out: PCAF IC50
# Protocol: IC50 Measurements for Inhibitors Using PCAF AlphaLisa Binding Assay PCAF bromodomain binding and inhibition of the compounds disclosed herein was assessed by monitoring the engagement of biotinylated small molecule ligand (known to bind to the PCAF bromodomain) with the target using the AlphaLisa technology (Perkin-Elmer).
Please note: log10 values; quantity IC50; unit nM.

compound: CN1CCCC[C@H](Nc2cnn(C)c(=O)c2Cl)C1
log10 IC50: 1.52
--
compound: CN1Cc2ccccc2C[C@@H](Nc2cnn(C)c(=O)c2Cl)C1
log10 IC50: 2.01
--
compound: Cn1ncc(NC2CCCN(Cc3c[nH]cn3)C2)c(Cl)c1=O (stereo not shown)
log10 IC50: 2.25
--
compound: Cc1c(NC2CCCCN(C)C2)cnn(C)c1=O (stereo not shown)
log10 IC50: 2.22
--
compound: C/C=C/Cn1ncc(NC2CCCCN(C)C2)c(Cl)c1=O (stereo not shown)
log10 IC50: 2.49
--
compound: C[C@H]1CC[C@@H](Nc2cnn(C)c(=O)c2Cl)CN1C (stereo in doubt)
log10 IC50: 1.69

Note: attention shifts to another entry.
Request: Any idea what its log10 IC50 is? The compound is Cn1ncc(NC2CCCN(Cc3c(F)cccc3F)C2)c(Cl)c1=O (stereo not shown)
Result: 3.00
